Data credit: patent US20130251703A1

- target-desc: human HER3 endogenously expressed on human cancer cells (SK-Br-3, BT-474, MCF7) (human, UniProt P21860 20-1342)
- measurement-description: cell-based or functional assay
measurement-type: MCF7 proliferation % inhibition (%)
Kindly answer with a numeric value in %, unit omitted.

INSERT INTO measurements (binder, unit_of_measurement, reported_measurement) VALUES
  ('MOR13655 (antibody, human IgG1, lambda, V domains shown, Tested as IgG) VH: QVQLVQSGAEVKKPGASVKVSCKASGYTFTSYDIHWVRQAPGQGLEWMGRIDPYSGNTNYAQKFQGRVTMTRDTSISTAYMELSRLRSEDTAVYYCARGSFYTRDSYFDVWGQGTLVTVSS VL: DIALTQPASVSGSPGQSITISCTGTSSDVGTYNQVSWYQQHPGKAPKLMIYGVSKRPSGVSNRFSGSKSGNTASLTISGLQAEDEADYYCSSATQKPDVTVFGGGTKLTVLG', '%', 46),
  ('MOR13658 (antibody, human IgG1, lambda, V domains shown, Tested as IgG) VH: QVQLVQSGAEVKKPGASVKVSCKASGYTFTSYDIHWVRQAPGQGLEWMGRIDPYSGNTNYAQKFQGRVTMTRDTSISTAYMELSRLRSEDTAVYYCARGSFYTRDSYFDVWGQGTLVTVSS VL: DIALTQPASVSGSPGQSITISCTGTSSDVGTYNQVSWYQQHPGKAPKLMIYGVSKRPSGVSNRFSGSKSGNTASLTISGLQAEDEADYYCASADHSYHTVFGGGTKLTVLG', '%', 49),
  ('MOR12921 (antibody, human IgG1, lambda, V domains shown, Tested as IgG) VH: QVQLVQSGAEVKKPGASVKVSCKASGYTFTGYYMHWVRQAPGQGLEWMGDIDPHSGNAVYAQKFQGRVTMTRDTSISTAYMELSRLRSEDTAVYYCARGSFYTRDSYFDVWGQGTLVTVSS VL: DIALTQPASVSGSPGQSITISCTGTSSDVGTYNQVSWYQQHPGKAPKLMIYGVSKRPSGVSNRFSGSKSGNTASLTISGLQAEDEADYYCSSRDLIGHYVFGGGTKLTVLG', '%', 31),
  ('MOR12922 (antibody, human IgG1, lambda, V domains shown) VH: QVQLVQSGAEVKKPGASVKVSCKASGYTFTGYYMHWVRQAPGQGLEWMGVIDPYSGWTEYAQKFQGRVTMTRDTSISTAYMELSRLRSEDTAVYYCARGSFYTRDSYFDVWGQGTLVTVSS VL: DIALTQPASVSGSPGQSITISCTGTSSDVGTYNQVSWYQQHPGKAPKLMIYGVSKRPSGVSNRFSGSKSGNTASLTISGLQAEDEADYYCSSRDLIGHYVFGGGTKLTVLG', '%', 27),
  ('MOR12615 (antibody, human IgG1, lambda, V domains shown, Tested as IgG) VH: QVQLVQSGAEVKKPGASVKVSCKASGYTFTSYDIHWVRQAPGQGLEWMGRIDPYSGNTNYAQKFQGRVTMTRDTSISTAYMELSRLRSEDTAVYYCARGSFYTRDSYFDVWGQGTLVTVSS VL: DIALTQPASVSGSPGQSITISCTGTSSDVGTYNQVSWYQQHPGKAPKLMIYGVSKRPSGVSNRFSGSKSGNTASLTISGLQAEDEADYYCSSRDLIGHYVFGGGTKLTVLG', '%', 42),
  ('MOR12603 (antibody, human IgG1, kappa, V domains shown, Tested as IgG) VH: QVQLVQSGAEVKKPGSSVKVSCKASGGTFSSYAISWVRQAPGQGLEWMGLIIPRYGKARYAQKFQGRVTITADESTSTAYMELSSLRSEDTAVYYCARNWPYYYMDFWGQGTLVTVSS VL: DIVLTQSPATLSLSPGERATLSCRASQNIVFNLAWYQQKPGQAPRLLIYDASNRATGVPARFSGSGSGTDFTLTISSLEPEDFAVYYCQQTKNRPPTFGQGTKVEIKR', '%', 44),
  ('MOR12604 (antibody, V domains shown, Tested as IgG) VH: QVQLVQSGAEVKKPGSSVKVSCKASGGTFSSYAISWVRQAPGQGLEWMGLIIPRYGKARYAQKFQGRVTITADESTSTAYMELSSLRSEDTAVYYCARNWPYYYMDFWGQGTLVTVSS VL: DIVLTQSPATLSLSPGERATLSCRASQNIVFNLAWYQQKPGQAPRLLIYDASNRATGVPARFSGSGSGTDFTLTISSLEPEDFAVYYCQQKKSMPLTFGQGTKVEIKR', '%', 39),
  ('MOR12606 (antibody, human IgG1, kappa, V domains shown, Tested as IgG) VH: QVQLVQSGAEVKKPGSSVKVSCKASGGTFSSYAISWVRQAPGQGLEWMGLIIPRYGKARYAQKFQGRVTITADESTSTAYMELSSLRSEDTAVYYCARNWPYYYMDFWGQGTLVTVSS VL: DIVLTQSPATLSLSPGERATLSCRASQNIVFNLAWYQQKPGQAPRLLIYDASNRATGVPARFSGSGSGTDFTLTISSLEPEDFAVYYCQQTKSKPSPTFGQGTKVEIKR', '%', 39);

Record MOR12514 (antibody, human IgG1, lambda, V domains shown, Tested as IgG) VH: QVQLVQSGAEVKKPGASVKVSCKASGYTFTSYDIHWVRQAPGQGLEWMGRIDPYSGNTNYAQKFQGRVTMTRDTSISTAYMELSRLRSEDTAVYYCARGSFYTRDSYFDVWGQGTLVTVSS VL: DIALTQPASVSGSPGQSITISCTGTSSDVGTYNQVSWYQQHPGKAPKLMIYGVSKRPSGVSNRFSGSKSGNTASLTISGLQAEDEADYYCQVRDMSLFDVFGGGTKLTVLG , field MCF7 proliferation % inhibition: 29

Record MOR12920 (antibody, human IgG1, lambda, V domains shown) VH: QVQLVQSGAEVKKPGASVKVSCKASGYTFTGYYMHWVRQAPGQGLEWMGDIEPYHGKPLYAQKFQGRVTMTRDTSISTAYMELSRLRSEDTAVYYCARGSFYTRDSYFDVWGQGTLVTVSS VL: DIALTQPASVSGSPGQSITISCTGTSSDVGTYNQVSWYQQHPGNAPKLMIYGVSKRPSGVSNRFSGSKSGNTASLTISGLQAEDEADYYCSSRDLIGHYVFGGGTKLTVLG , field MCF7 proliferation % inhibition: 22
